src = patent US20040157892A1

System: Tetranychus urticae Motiles
Experiment: mite contact (MIC) bioassay
Format: in vivo
Settings: 300 ppm, contact on bean leaf, evaluated five days later
Reported Endpoint: Pesticidal Activity MIC (control) (%)
The reply should contain only the number, in %.

Ask: Identify Pesticidal Activity MIC (control) associated with the compound FCCn1cc(-c2ccc(Cl)s2)cn1 [Compound 6]
Result: 100

Ask: Identify Pesticidal Activity MIC (control) associated with the compound CCOC(=O)c1sc(-c2cnn(CCF)c2)nc1C(F)(F)F [Compound 7]
Result: 100

Ask: Identify Pesticidal Activity MIC (control) associated with the compound FCCn1cc(C#Cc2cccnc2)cn1 [Compound 10]
Result: 100

Ask: Identify Pesticidal Activity MIC (control) associated with the compound FCCn1cc(C#Cc2ccc(Cl)cc2)cn1 [Compound 9]
Result: 100

Ask: Identify Pesticidal Activity MIC (control) associated with the compound FCCn1cc(-c2cccc(Cl)n2)cn1 [Compound 8]
Result: 100
